- run.description: recombinant barcode read abundance after kanamycin selection (control-corrected) (log10(CPM+1)); higher = more efficient recombination; sequences stand for … in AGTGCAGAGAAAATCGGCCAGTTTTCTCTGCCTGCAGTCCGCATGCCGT…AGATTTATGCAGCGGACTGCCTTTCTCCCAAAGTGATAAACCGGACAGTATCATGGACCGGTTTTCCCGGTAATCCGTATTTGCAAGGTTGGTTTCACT; site = the 11-nt target;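 note: IS621 recombinase and bridge RNA in Escherichia coli cells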
Record form. Attribute: recombinant barcode read abundance (log10). Fill in for each entry.
Give your answer as a number; write no unit.

// returns reported recombinant barcode read abundance (log10) for input CCGGGTTCTTGGGTTCTAACCTGTTGCCT (site CCGGGTTCTAG) 1.79

GET /values?readout=recombinant barcode read abundance (log10)&item= TCTAATCCTTGGGTTCTAACCTGTTGCAT (site TCTAAACCTAT) 0.11

// query recombinant barcode read abundance (log10) value for entry CGGGTGCCTTGGGTTCTAACCTGTTGCCT (site CAGGTGCCTAG) 0.379

// recombinant barcode read abundance (log10) lookup, key: TATCCATCTTGGGTTCTAACCTGTTGCCT (site TACCCATCTAG) 0.0382
